Hello, the source for this data is patent US9675592B2, in case you need it.

measuredOn: cytoplasmic domain of VraS (VraS-C) (Staphylococcus aureus, UniProt Q99SZ7)
Sequence (Q99SZ7 70-347): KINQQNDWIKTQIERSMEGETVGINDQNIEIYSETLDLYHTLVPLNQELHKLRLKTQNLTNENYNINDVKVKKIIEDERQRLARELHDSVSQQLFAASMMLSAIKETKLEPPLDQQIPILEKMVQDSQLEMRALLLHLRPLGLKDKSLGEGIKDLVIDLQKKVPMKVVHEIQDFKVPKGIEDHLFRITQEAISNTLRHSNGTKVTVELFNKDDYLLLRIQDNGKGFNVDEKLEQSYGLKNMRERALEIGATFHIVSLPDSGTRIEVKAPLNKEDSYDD
testSummary: biochemical
Format: binding
runConditions: His-tagged VraS-C, SPR; read-out: KD
readout: pKd
Remember the convention: pKd equals -log10 of concentration in molar.

Challenge: Any idea what pKd was measured for CSc1cccc(-c2nnc(NC(=O)c3nc4ccccc4s3)o2)c1 ?
Response given: 4.25

---

measuredOn: cytoplasmic domain of VraS (VraS-C) (Staphylococcus aureus)
testSummary: biochemical
Assay type: binding
runConditions: untagged VraS-C protein, SPR; read-out: KD
readout: Kd (µM)
The figure you give is taken to be in µM; do not add the unit.

Challenge: # returns recorded Kd (system: cytoplasmic domain of VraS (VraS-C) (Staphylococcus aureus)) for CSc1cccc(-c2nnc(NC(=O)c3nc4ccccc4s3)o2)c1
Response given: 13.2

---

Measured maximum non-GI conc of individual entries
System: test strain (923 pPvra-lux)
testSummary: Growth inhibition by compound alone (maximum non-growth-inhibitory concentration)
Type: cell-based, Staphylococcus aureus
runConditions: compound alone; maximum concentration where it did NOT inhibit growth
Write the value in µg/mL as a bare number.

Examples with their reported maximum non-GI conc follow.
>>> df
                                   compound                   measuredon              readout  testresult
0  Oc1ccc(C2(c3cccc(Br)c3)CCCCC2)cc1 [F0020-1560]  test strain (923 pPvra-lux)  maximum non-GI conc          40
1  O=S(=O)(Nc1cccc(-c2nc3ccccc3s2)c1)c1ccc(Cl)s1 [F2399-0063]  test strain (923 pPvra-lux)  maximum non-GI conc         400
2  Cc1cc(SCC(=O)Nc2cccc(C(F)(F)F)c2)n2ncc(-c3ccccc3)c2n1 [F3305-0354]  test strain (923 pPvra-lux)  maximum non-GI conc          40
3  O=C(Nc1ccccc1-c1nc2ccccc2[nH]1)c1ccccc1Br [F0015-0758]  test strain (923 pPvra-lux)  maximum non-GI conc         400

Challenge: Request the reported maximum non-GI conc associated with O=C(Nc1nc(-c2ccccn2)cs1)c1ccc(Br)s1 [F0447-0273]
Response given: 40

---

Reported maximum non-GI conc values for a set of compounds
System: test strain (923 pPvra-lux)
testSummary: Growth inhibition by compound alone (maximum non-growth-inhibitory concentration)
Format: cell-based, Staphylococcus aureus
runConditions: compound alone; maximum concentration where it did NOT inhibit growth
Write down the numeric answer in µg/mL and omit the unit.

Worked cases, answers included:
>>> print(df.to_string())
                                   compound  unitofmeasurement  testresult
0  Cc1ccc(-c2nnc(NC(=O)c3ccc(S(=O)(=O)N4CCc5ccccc5C4)cc3)o2)c(C)c1              µg/mL           4
1  O=C(Nc1cccc(C(F)(F)F)c1)N1CCN(c2ccc(Nc3cccnc3)nn2)CC1              µg/mL          40
2  Cn1cccc1C(CNC(=O)Nc1ccc(Cl)c(Cl)c1)N1CCOCC1 (stereo not shown)              µg/mL          40
3  O=C(Nc1ccc(OC(F)(F)F)cc1)N1CCN(c2cc(N3CCCC3)ncn2)CC1              µg/mL          40
4     Cc1nnsc1C(=O)Nc1nc(-c2cc3ccccc3o2)cs1              µg/mL         400
5      O=C(Nc1nnc(C2=COCCO2)o1)c1cccc(Br)c1              µg/mL          40
6  CN(C)CCCNc1cc(C(C)(C)C)nc2c(-c3ccc(Cl)cc3)cnn12              µg/mL          40
7          Cc1ccc(C)c2sc(NC(=O)c3cccs3)nc12              µg/mL         400

Challenge: Could you share which maximum non-GI conc value was measured for O=C(Nc1nnc(-c2ccccc2Cl)o1)c1ccc2ccccc2c1 ?
Response given: 40

Challenge: Quick check: maximum non-GI conc of CC(C)(C)c1csc(NC(=O)c2cccc(NS(=O)(=O)c3ccc(F)cc3)c2)n1 ?
Response given: 400

Challenge: Param item = Fc1cccc(Nc2nc(Nc3ccc(F)c(Cl)c3)nc(N3CCOCC3)n2)c1 ; retrieve measured maximum non-GI conc.
Response given: 400

Challenge: Any idea what maximum non-GI conc was measured for O=S(=O)(Nc1cccc(-c2nc3ccccc3s2)c1)c1ccc(F)c(Cl)c1 ?
Response given: 40

Challenge: Record request: maximum non-GI conc value, item CN1CCN(c2nc(Nc3ccc(SC(F)F)cc3)c3cnn(-c4ccccc4)c3n2)CC1
Response given: 400

Challenge: For the compound shown here, O=C(Nc1ccc(Cl)c(Cl)c1)N(Cc1ccsc1)Cc1ccco1 , give the reported maximum non-GI conc.
Response given: 40

Challenge: # get_value(readout='maximum non-GI conc', item= Cc1ccc(S(=O)(=O)Nc2ccccc2C(=O)Nc2nc3c(C)ccc(Cl)c3s2)cc1 )
Response given: 400

Challenge: Give its maximum non-GI conc value. Item: CC1CC1c1ccc(CCC(=O)Nc2ccc(Cl)c(Cl)c2)o1 (stereo not shown)
Response given: 40

Challenge: Request the reported maximum non-GI conc associated with Cc1ccc(S(=O)(=O)Nc2ccccc2C(=O)Nc2nc3c(C)ccc(C)c3s2)cc1
Response given: 400

Challenge: Could you share which maximum non-GI conc value was measured for O=C(Nc1ccc(Cl)c(C(F)(F)F)c1)N1CCN(c2cc(-n3cccn3)ncn2)CC1 ?
Response given: 40

Challenge: Entry under review: O=C(Nc1ccc2c(c1)OCO2)Nc1nc(-c2ccccn2)cs1 . Reported maximum non-GI conc?
Response given: 400

Challenge: Returns the measured maximum non-GI conc for the input compound. Input: Clc1ccc(-c2csc3ncnc(Sc4nnnn4-c4ccccc4)c23)cc1
Response given: 40

Challenge: Bench note: what maximum non-GI conc did O=C(Nc1ccc(Cl)c(Cl)c1)Nc1ccc2cn[nH]c2c1 show?
Response given: 400

Challenge: # input compound: O=C(CCCSc1ccc(Cl)cc1)Nc1nc(-c2ccccn2)cs1 ; wanted: its maximum non-GI conc
Response given: 40

Challenge: Quick check: maximum non-GI conc of Cc1ccc(S(=O)(=O)Nc2ccccc2C(=O)Nc2nc3c(Cl)ccc(Cl)c3s2)cc1 ?
Response given: 400

Challenge: Would you kindly share the measured maximum non-GI conc for CC(=O)Nc1ccc(Nc2cc(C(C)C)nc3c(-c4ccccc4)cnn23)cc1 ?
Response given: 400

Challenge: What value of maximum non-GI conc has been reported for the following compound? CSc1cccc2sc(NC(=O)c3ccccc3NS(=O)(=O)c3ccc(C)cc3)nc12
Response given: 400
